System: HCT-116 colon
Assay: NCI-60 one-dose screen, 48 h (100 = growth as untreated, 0 = no growth, -100 = all killed)
Settings: 10 µM unless noted
This is part of a sample that, as a whole, favours compounds with a hit. Of some 83,000 tested, about 20% had one in any assay.
recordedEndpoint: growth (%)
Expressed in %, but write only the number.

The examples below pair each entry with its known result.
>  <sampleSmiles>
COc1ccc(/C=C/C(=O)c2c(C)nc3ccccc3c2/C=C/c2ccccc2)cc1O

>  <growth (%)>
12

$$$$
>  <sampleSmiles>
O=C(CCN1C(=O)c2ccccc2C1=O)Nc1ccc(Cl)cc1

>  <growth (%)>
61.4

$$$$
>  <sampleSmiles>
COc1ccc(N)c(-c2cc3c(c4c2[nH]c2ccc(OC)cc24)CCCC3)c1

>  <growth (%)>
58.4

$$$$
>  <sampleSmiles>
O=C(Nc1ccc(N2CCNCC2)cc1)c1[nH]ncc1Nc1ncnc2sc3c(c12)CCC3

>  <growth (%)>
-85.4

$$$$

Consider now this further molecule.
q: So what does the record say about growth for COc1ccc2[nH]c(O)c(N=NC(=O)c3oc4ccccc4c3C)c2c1 ?
a: -28.6
